# protocol_description: In vivo pharmacokinetic experiment in CD-1 mice
# conditions: male, mouse, po, 100 mg/kg, p.o. 100 mpk, plasma
assay_endpoint: Cmax (µM)
Numbers only, in µM.

Respond only with Cmax recorded for C#Cc1c(F)ccc2cc(N)cc(-c3ncc4c(N5CC6CCC(C5)N6)nc(OC[C@@]56CC(=C)CN5C[C@@H]5C[C@@H]56)nc4c3F)c12 (single isomer, unassigned)
3.11

====

# protocol_description: In vivo pharmacokinetic experiment in CD-1 mice
# conditions: male, mouse, po, 30 mg/kg, p.o. 30 mpk, plasma
assay_endpoint: AUC(0-inf) (µM·h)
One number for each entry, in µM·h.

Respond only with AUC(0-inf) recorded for C#Cc1c(F)ccc2cc(N)cc(-c3ncc4c(N5CC6CCC(C5)N6)nc(OC[C@@]56CC(=C)CN5C[C@@H]5C[C@@H]56)nc4c3F)c12 (single isomer, unassigned) [Compound 3]
1.18
